assay: Aging promotion testing: sunlight 30 min / fading one hour cycles, 10 days (durability, coloring degree); type: physicochemical; conditions: single chromene compound in polymer, 10 days aging; Table 5
Measure Name: Light resistance (durability) (%)

{"columns": ["Molecule", "Measure Name", "Measurement"],
 "data": [
  ["CCOc1ccc(C2(c3ccc(OCC)cc3)C=Cc3c(C)cc4ccccc4c3O2)cc1", "Light resistance (durability)", 98],
  ["COc1ccc(C2(c3ccc(OC)cc3)C=Cc3c(C)cc4ccccc4c3O2)cc1", "Light resistance (durability)", 99],
  ["CCCc1cc2c(CC)cc(OCC)cc2c2c1C=CC(c1ccc(OC)cc1)(c1cccs1)O2 (stereo not drawn)", "Light resistance (durability)", 96],
  ["CC(C)c1cc2ccccc2c2c1C=CC(c1ccccc1)(c1ccc3ccccc3c1)O2 (stereo not drawn)", "Light resistance (durability)", 96],
  ["CC(C)(C)c1cc2ccccc2c2c1C=CC1(O2)C2CC3CC(C2)CC1C3 (stereo not drawn)", "Light resistance (durability)", 95],
  ["COc1ccc(C2(c3ccc(OC(F)(F)F)cc3)C=Cc3c(C)cc4ccccc4c3O2)cc1 (stereo not drawn)", "Light resistance (durability)", 97],
  ["CCc1cc2ccccc2c2c1C=CC(c1ccc(OC)cc1)(c1ccc(OC)cc1)O2", "Light resistance (durability)", 96],
  ["CC(C)(C)c1cc2ccccc2c2c1C=CC1(O2)C2(Cl)CCC1(Cl)CC2 (stereo not drawn)", "Light resistance (durability)", 80],
  ["CCC(C)c1cc2ccccc2c2c1C=CC(c1ccc(OC)cc1)(c1ccc(OC)c(C#N)c1)O2 (stereo not drawn)", "Light resistance (durability)", 80]
]}

Source: patent US6197225A
